Give Activity for every item shown.
- System: Mus musculus
- Experiment notes: Toxicity in mouse L1210 cells allografted mouse assessed as reduction in body weight at 100 mg/kg administered on day 1 followed by 5 injections with 1 day interval
- Format: organism-based
- Parameters: dose 100 mg/kg
- Experimental conditions: in vivo, 24 h
Numbers only, in g.

# batch size: 2; output Activity per entry
1. CN(C)/N=N/c1ncn(C2CCCO2)c1C(N)=O (centres undefined)
2. CC(=O)OC[C@H]1O[C@@H](n2cnc(C(N)=O)c2/N=N/N(C)C)[C@H](OC(C)=O)[C@@H]1OC(C)=O

Outgoing:
[1.9, 0.3]

For every record below, what is its Activity?
1. CC(=O)OC[C@H]1O[C@@H](n2cnc(/N=N/N(C)C)c2C(N)=O)[C@H](OC(C)=O)[C@@H]1OC(C)=O
2. CN(C)/N=N/c1nn(C2CCCO2)cc1C(N)=O (centres undefined)

Outgoing:
1: 1.5; 2: 2.3

* * *

So I've got a bunch of compounds here, and I need their T/C values.
- Test system: L1210
- Experiment notes: Antitumor activity against mouse L1210 cells allografted in mouse assessed as increase in survival at 200 mg/kg administered on day 1 followed by 5 injections with 1 day interval relative to control
- Format: functional
Answers are plain numbers, in %.

Illustrative cases are given below, each with its answer.
{"columns": ["Compound", "T/C, %"],
 "data": [
  ["CN(C)/N=N/c1ncn(C2CCCO2)c1C(N)=O (stereo not given)", 115],
  ["CN(C)/N=N/c1nn(C2CCCO2)cc1C(N)=O (stereo not given)", 134]
]}

The following compounds each have a reported value; give each one's T/C.
1. CC(=O)OC[C@H]1O[C@@H](n2cnc(/N=N/N(C)C)c2C(N)=O)[C@H](OC(C)=O)[C@@H]1OC(C)=O
2. CC(=O)OC[C@H]1O[C@@H](n2cnc(C(N)=O)c2/N=N/N(C)C)[C@H](OC(C)=O)[C@@H]1OC(C)=O
3. CC(=O)OC[C@H]1O[C@@H](n2ncc(C(N)=O)c2/N=N/N(C)C)[C@H](OC(C)=O)[C@@H]1OC(C)=O

Outgoing:
[124, 95, 122]

* * *

- Test system: Mus musculus
- Experiment notes: Toxicity in mouse L1210 cells allografted mouse assessed as reduction in body weight at 200 mg/kg administered on day 1 followed by 5 injections with 1 day interval
- Type: organism-based
- Design: dose 200 mg/kg
- Experimental conditions: in vivo, 24 h
Observation type: Activity

{"columns": ["Molecule", "Assayed system", "Activity"],
 "data": [
  ["CC(=O)OC[C@H]1O[C@@H](n2cnc(C(N)=O)c2/N=N/N(C)C)[C@H](OC(C)=O)[C@@H]1OC(C)=O", "Mus musculus", "0.9 g"],
  ["CC(=O)OC[C@H]1O[C@@H](n2ncc(C(N)=O)c2/N=N/N(C)C)[C@H](OC(C)=O)[C@@H]1OC(C)=O", "Mus musculus", "2.3 g"],
  ["CN(C)/N=N/c1ncn(C2CCCO2)c1C(N)=O (stereo not given)", "Mus musculus", "4.3 g"],
  ["CN(C)/N=N/c1nn(C2CCCO2)cc1C(N)=O (stereo not given)", "Mus musculus", "3.7 g"]
]}

Field: next molecule
Incoming: Entry `CC(=O)OC[C@H]1O[C@@H](n2cnc(/N=N/N(C)C)c2C(N)=O)[C@H](OC(C)=O)[C@@H]1OC(C)=O` needs its Activity filled in; supply it.
Outgoing: 1.6 g
